ASSAYED SYSTEM: Cathepsin B (Homo sapiens, UniProt P07858)
EXPERIMENT SUMMARY: Cathepsin B enzyme assay
EXPERIMENTAL PARAMETERS: Cat B (μM), Ki by Morrison equation; pH 6.0, substrate Z-Phe-Arg-Amc
RESULT TYPE: Ki (µM)

>  <MOLECULE>
CC[C@H](C)[C@H](NC(=O)C(=O)C(Cc1ccccc1)NC(=O)C(Cc1ccccc1)NC(=O)Cc1ccccc1)C(=O)N1CCCC1C(N)=O (stereo partly drawn)

>  <ASSAYED SYSTEM>
Cathepsin B (Homo sapiens, UniProt P07858)

>  <NUMERIC VALUE>
0.277

$$$$
>  <MOLECULE>
CC(C)C[C@H](NC(=O)C(c1ccccc1)c1ccccc1)C(=O)NC(C)C(=O)C(=O)NCC(=O)N[C@@H](Cc1ccc2ccccc2c1)C(N)=O (stereo partly drawn)

>  <ASSAYED SYSTEM>
Cathepsin B (Homo sapiens, UniProt P07858)

>  <NUMERIC VALUE>
0.106

$$$$
>  <MOLECULE>
CC(NC(=O)C(Cc1ccccc1)NC(=O)Cc1ccccc1)C(=O)C(=O)NC(Cc1cccc2ccccc12)C(=O)NC(C)(C)C(=O)O (stereo not drawn)

>  <ASSAYED SYSTEM>
Cathepsin B (Homo sapiens, UniProt P07858)

>  <NUMERIC VALUE>
0.03

$$$$
